Test: MTT viability assay, L929
Format: cell-based, murine
Conditions: mouse, L929 fibroblasts, tested 1–500 µM
// classify: if (CC50 < 90 µM) class 1 else class 0

compound | label class
Cc1noc(N)c1-c1nc2c(NCCO)ncnc2o1 [Compound 3h] | class 0
Cc1noc(N)c1-c1nc2c(NCCCN(C)C)ncnc2o1 [Compound 3g] | class 1
Cc1noc(N)c1-c1nc2c(NCCN3CCOCC3)ncnc2o1 [Compound 3j] | class 1

## Task For this compound, is CC50 lower than 90 µM? Cc1noc(N)c1-c1nc2c(NCCN(C)C)ncnc2o1 [Compound 3f]
## Result class 0

## Task Can you check CCNc1ncnc2oc(-c3c(C)noc3N)nc12 [Compound 3b] next?
## Result class 0

## Task Let us now turn to Cc1noc(N)c1-c1nc2c(NCCCO)ncnc2o1 [Compound 3i]
## Result class 0

## Task Now give it for O=c1[nH]cc(F)c(=O)[nH]1 [Compound 5-FU, 5-fluorouracil, reference compound] too.
## Result class 1
